# Measured On: T1, BsGpsB1-68 Asp31Ala (B. subtilis, UniProt P0CI74 1-68, Asp31Ala)
# T1 construct: GpsB, Bacillus subtilis, residues 1-68 (N-terminal domain); also called BsGpsB1-68 D31A; source: E. coli BL21(DE3), purified (Ni-NTA, thrombin removal of the His6-tag, SEC); not shown: His6, N-terminal, cleaved
# T1 sequence (looked up): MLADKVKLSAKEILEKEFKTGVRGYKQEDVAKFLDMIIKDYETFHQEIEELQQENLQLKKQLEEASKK
# Protocol Text: fluorescence polarisation
# Assay Setup: both partners purified
pKd: −log10 of the molar value. Non-standard residues stand in square brackets, D forms with d. No end group written: not given here. fluorescein = fluorescein fluorescent label on the N-terminus; Nle = CCCC[C@H](N)C(=O)O
Reported Metric: pKd

Reported pKd of fluorescein-[Nle]TN[Nle]SRVERRKAQNLYEDQNA [Fluoroescein-BsYpbE1-21] : < 3.30
